- Test system: KM12 colon
- assay.overview: NCI-60 one-dose screen, 48 h
- test.settings: 10 µM unless noted
This is part of a sample that, as a whole, favours compounds with a hit. Of some 83,000 tested, about 20% had one in any assay. The source made the active and inactive calls. Rule for the calls: active = growth percent below 10; inactive = the rest.
Labels: 1 = active, 0 = inactive

1. CN(C)c1ccc(Cc2cc(-c3ccccc3)nn(C/C(=N/O)c3ccccc3)c2=O)cc1 0
2. Cc1cc2c(C(C)C)c(O)c(O)c(/C=N/O)c2c(O)c1-c1c(C)cc2c(C(C)C)c(O)c(O)c(/C=N/O)c2c1O 0
3. C=C1/C(=C\C=C2/CCC[C@]3(C)[C@@H]([C@H](C)CCCC(C)(C)O)CC[C@@H]23)C[C@@H](OC(=O)CBr)C[C@@H]1O 0
4. CCCCN(CCC#N)C(N)=O 0
5. COc1cc(C(=O)/C=C/c2c(-c3cccs3)nc3sc(C)cn23)cc(OC)c1OC 1
6. COc1ccc(/C=N/NC(=O)Cn2nnc3ccccc32)cc1 0
7. O=C(COc1ccc(/C=C2\Oc3ccccc3C2=O)cc1)Nc1nccs1 0
8. COCCn1cc(-c2nc(-c3cc4cccnc4n3C)cs2)c2cc(OC)ccc21 1
9. CC(=O)c1ccc(Nc2nccc(-c3ccc(Cl)cc3)n2)cc1 0
10. Oc1ccc(Cc2ccc(O)c3ncccc23)c2cccnc12 0

* * *

- Test system: SK-OV-3 ovarian
- assay.overview: NCI-60 one-dose screen, 48 h (100 = growth as untreated, 0 = no growth, -100 = all killed)
- test.settings: 10 µM unless noted
- Method: Growth inhibition of the SK-OV-3 human tumor cell line is measured as a screen for anti-cancer activity. Cells are grown in 96 well plates and exposed to the test compound for 48 hours. Compounds are tested at a single concentration, which is 10^-5 M for most compounds. The reported endpoint is percent growth (GI% or GIPRCNT), where numbers from 0 - 100% represent growth inhibition, and numbers from -100% - 0 represent cell death. For example, a value of 40 represents 60% growth inhibition. […]
About 83,000 compounds went through this panel and 20% of them were active in at least one assay; those are over-represented in the sample as a whole. The source made the active and inactive calls. How the source made its calls: active means growth percent below 10; inactive means the rest.

molecule	tgt	growth
CNC1=C(Br)C(=O)c2c(C(=O)OC)c(C)nc(C)c2C1=O	SK-OV-3 ovarian	116% (inactive)
C[C@H]1c2ccccc2CN1CCCOc1cc2c(cc1OCC1CC1)C1(CCCC1)C(N)=N2	SK-OV-3 ovarian	90.2% (inactive)
c1ccc(-c2cn3nc(-c4c[nH]c5ccccc45)sc3n2)cc1	SK-OV-3 ovarian	80.4% (inactive)
CCOC(=O)c1cnc2sc(-c3ccc(OC)cc3)nc2c1Cl	SK-OV-3 ovarian	121% (inactive)
Nc1ncc(-c2ccc3ncnc(N4CCc5cc(F)c(Cl)cc54)c3c2)cn1	SK-OV-3 ovarian	29.4% (inactive)
O=C1/C(=C/c2ccc(-c3ccc(Cl)cc3)o2)SC(=S)N1CCc1ccc(O)cc1	SK-OV-3 ovarian	44.8% (inactive)
N#C/C(=C\c1cccc2cnccc12)N1N=NC2C=CC=CC21 (stereo not drawn)	SK-OV-3 ovarian	86.1% (inactive)
C=C1C(=O)O[C@H]2[C@H]1CC/C(COC(=O)NCc1ccc(Cn3c(=O)sn(CCCC)c3=O)cc1)=C\CC[C@@]1(C)O[C@@H]21	SK-OV-3 ovarian	107% (inactive)
CCCCCCCCCCCCCC[n+]1ccc2c(C)c3c(c(C)c2c1)c1cc(O)ccc1n3CC	SK-OV-3 ovarian	-19% (active)
COc1cc(/C=N/NC(=O)c2ccc3nc(-c4ccc(Cl)cc4)[nH]c3c2)cc(OC)c1OC	SK-OV-3 ovarian	87.8% (inactive)
O=C1c2ccccc2C(=O)c2cc(Cn3c[n+](Cc4ccc5ccccc5c4)c4ccccc43)ccc21	SK-OV-3 ovarian	83.2% (inactive)
O=C1CCc2c(sc3[nH]c(=S)n(-c4cc(C(F)(F)F)cc(C(F)(F)F)c4)c(=O)c23)C1	SK-OV-3 ovarian	-18.7% (active)
COc1ccc(C2=C/C(=C\c3ccccc3O)C(=O)N2Cc2ccccc2)cc1	SK-OV-3 ovarian	73.8% (inactive)
O=C1c2cccnc2C(=O)c2c1c(C(=O)OCCCN1CCOCC1)c1ccccn21	SK-OV-3 ovarian	-11.6% (active)
CC(C)=CC(=O)C1C(=O)c2ccccc2C1=O	SK-OV-3 ovarian	90.4% (inactive)
CCOC(=O)c1ccc2c(c1)[n+](=O)c(C(C)=O)c(C(F)(F)F)n2[O-]	SK-OV-3 ovarian	24.8% (inactive)
Nc1ncc(-c2ccc3ncnc(N4CCc5cc(F)c(Cl)cc54)c3c2)cc1C(F)(F)F	SK-OV-3 ovarian	31.9% (inactive)
C=CN(C(=O)N1CCN(c2cc3c(cc2F)c(=O)c(C(=O)O)cn3C2CC2)CC1)c1nc(-c2ccc(C)cc2)cs1	SK-OV-3 ovarian	-5.97% (active)
COC(=O)c1c(C)nc(C)c2c1C(=O)C(Br)=C(NCCN1CCOCC1)C2=O	SK-OV-3 ovarian	138% (inactive)
CC(=O)Oc1ccccc1C(=O)N(Cc1ccc2c(Cl)cc(Cl)c(O)c2n1)c1ccccc1	SK-OV-3 ovarian	64.5% (inactive)
Cn1ccnc1C(=O)/C=C/c1ccc(CC(=O)Nc2cc(F)c(F)c(F)c2)cc1	SK-OV-3 ovarian	85.2% (inactive)
COc1ccc(C(=O)C2OC3=C(C(=O)CC(C)(C)C3)C2c2cccc(Oc3ccccc3)c2)cc1 (stereo not drawn)	SK-OV-3 ovarian	91.4% (inactive)
CN(Cc1ccccc1)c1nc(Cl)c(C2CC(c3ccc(Cl)cc3)=NN2c2cc(Cl)cc(Cl)c2)s1 (stereo not drawn)	SK-OV-3 ovarian	92.9% (inactive)
C#Cc1c(I)n(C2OC(CO[Si](C)(C)C(C)(C)C)C3OC(C)(C)OC32)c(=O)[nH]c1=O (stereo not drawn)	SK-OV-3 ovarian	107% (inactive)
Cn1cc(-c2csc(-c3cn(CCO)c4ccc(F)cc34)n2)c2cccnc21	SK-OV-3 ovarian	73% (inactive)
COc1ccc(-c2cc(-c3ccc(N(C)C)cc3)nc(NC(=O)c3cccnc3)n2)cc1	SK-OV-3 ovarian	103% (inactive)
O=C(COc1ccc(/C=C2\Oc3ccccc3C2=O)cc1)Nc1nccs1	SK-OV-3 ovarian	125% (inactive)
CCCN1C2CCC1/C(=C\c1ccc(OC)cc1)C(=O)/C2=C/c1ccc(OC)cc1	SK-OV-3 ovarian	79.4% (inactive)
O=S(=O)(c1ccc(NCSc2nc3ccccc3s2)cc1)c1ccc(NCSc2nc3ccccc3s2)cc1	SK-OV-3 ovarian	71.3% (inactive)
NCCCCCNc1noc(Cc2c[nH]c3cc(Br)ccc23)n1	SK-OV-3 ovarian	-1.93% (active)
C#CCOc1cccc(Nc2c(Cl)c(CCl)nc3ccc(Oc4ccccc4)cc23)c1	SK-OV-3 ovarian	109% (inactive)
CN1CCN(CCCNC(=O)c2c3c(n4ccccc24)C(=O)c2ncccc2C3=O)CC1	SK-OV-3 ovarian	28.6% (inactive)
COc1cc(/C=C2\C(=O)N(CCOc3cc(O)c4c(=O)cc(-c5ccccc5)oc4c3)c3ccccc32)cc(OC)c1O	SK-OV-3 ovarian	92.2% (inactive)
CCN(CC)c1ccc(/C=N/NC(=O)c2ccccc2Nc2ccnc(C(F)(F)F)c2)c(O)c1	SK-OV-3 ovarian	19.9% (inactive)
Clc1nc(N2CCC[N+]3(CC2)CC[N+]2(CCCNCC2)CC3)nc(N2CCC[N+]3(CC2)CC[N+]2(CCCNCC2)CC3)n1 (stereo not drawn)	SK-OV-3 ovarian	76.2% (inactive)
C#Cc1cccc(Nc2nc(Cl)nc3cc(NC(=O)CCl)ccc23)c1	SK-OV-3 ovarian	-18.9% (active)
O=C1c2ccccc2-c2c1c1ccncc1c(=O)n2CCCn1ccnc1	SK-OV-3 ovarian	73.6% (inactive)
CCNCCNc1c(C)c(-c2ccc(C(F)(F)F)cc2)c(C#N)c2nc3ccccc3n12	SK-OV-3 ovarian	111% (inactive)

* * *

- System: KM12 colon
- assay.overview: NCI-60 one-dose screen, 48 h (100 = growth as untreated, 0 = no growth, -100 = all killed)
- test.settings: 10 µM unless noted
About 83,000 compounds went through this panel and 20% of them were active in at least one assay; those are over-represented in the sample as a whole. Calls of active or inactive are those of the source. Rule for the calls: active = growth percent below 10; inactive = the rest.
// values below are reported growth

molecule	growth
O=C(Nc1ncc(Cc2ccccc2Cl)s1)c1ccc2c(c1)OCCO2	6.53% (active)
CC1=NC(=S)NC(c2ccccc2)/C1=C1/CC(c2ccccc2O)NN1 (stereo not given)	104% (inactive)
O=C(O)c1nn(-c2ccc(Cl)cc2)nc1N1CCCC1	107% (inactive)
Oc1cccc2c1NCCC2	20.7% (inactive)
C=C1C(=O)O[C@H]2[C@H]1CC/C(COC(=O)NCc1ccc(Cn3c(=O)sn(CCCC)c3=O)cc1)=C\CC[C@@]1(C)O[C@@H]21	101% (inactive)
Cc1c2ccncc2c(C)c2c1c1ccccc1n2CCCCCC(=O)O	82.3% (inactive)
O=CN1N=C(c2cccc(Nc3ccncc3)c2)CC1c1ccc2c(c1)OCO2 (stereo not given)	98.4% (inactive)
COc1cc2ncnc(Nc3ccc(S(=O)(=O)Nc4cc(C)on4)cc3)c2cc1OCCCN1CCOCC1	103% (inactive)
N#C/C(=N\Nc1ccccc1)C(=O)Nc1cc(-c2ccccc2)nn1-c1ccccc1	36.8% (inactive)
CCN1C(=O)N(CC)C2C1NN=c1s/c(=C\c3ccc([N+](=O)[O-])cc3)c(=O)n12 (stereo not given)	19.6% (inactive)
COc1cc(/C=N/NC(=O)c2ccc3nc(-c4ccc(Cl)cc4)[nH]c3c2)cc(OC)c1OC	61.8% (inactive)
Cc1nc2sc(C(=O)Nc3ccccc3)c(N)c2cc1C(O)c1ccccc1 (stereo not given)	18.3% (inactive)
Cc1cc(=O)oc2cc(Oc3nc(-c4ccccc4)cn4c(-c5ccccc5)cnc34)ccc12	75.5% (inactive)
O=C(Nc1ncc(Cc2ccc(Cl)cc2)s1)c1ccc2c(c1)OCCO2	12.7% (inactive)
CC(C)(C)CC(C)(C)Nc1c(-c2c(O)c3ccccc3oc2=O)nc2sccn12	107% (inactive)
COc1ccc(-c2cc(-c3ccc(N(C)C)cc3)nc(NC(=O)c3cccnc3)n2)cc1	98.3% (inactive)
COc1cccc(/C=C/C(=O)/C=C(/C=C/c2cccc(OC)c2OC)OB(F)F)c1OC	86.5% (inactive)
CCOC(=O)c1cnc2sc(-c3ccc(OC)cc3)nc2c1Cl	90.7% (inactive)
COc1ccc(-c2cc(-c3ccc(Cl)cc3)c(C#N)c(=O)n2CCCCC(=O)NO)cc1	86.9% (inactive)
N#Cc1c(-c2ccc(Cl)cc2)nc(NN=Cc2cccc(Cl)c2)nc1N1CCOCC1	84% (inactive)

Value source: PubChem BioAssay (NCI)
